Hello, the source for this data is patent US20110152267A1, in case you need it.

I'd appreciate it if you could supply Fa values for the items below.
System: LNCaP prostate adenocarcinoma cell line
TEST_SUMMARY: DIMSCAN cytotoxicity, fenretinide + L-threo-sphinganines 3:1 (Example B16)
Type: cell-based, human
MEASUREMENT_SETUP: LNCaP.FGC; 4-HPR 9 μM + L-threo-sphinganine 3 μM
Please reply with the value in numeric form only.

Task: Name the recorded Fa of the compound listed here: CCCCCCCCCCCCCC[C@H](O)[C@@H](N)CO [C17, (2S,3S)-2-amino-1,3-heptadecanediol]
Result: 0.999

Task: Name the recorded Fa of the compound listed here: CCCCCCCCCCCCCCCCC[C@H](O)[C@@H](N)CO [C20, (2S,3S)-2-amino-1,3-icosanediol]
Result: 0.999

Task: Name the recorded Fa of the compound listed here: CCCCCCCCCCCCCCC[C@H](O)[C@@H](N)CO [C18, (2S,3S)-2-amino-1,3-octadecanediol, reference compound]
Result: 0.999

Task: Name the recorded Fa of the compound listed here: CCCCCCCCCCCCCCCC[C@H](O)[C@@H](N)CO [C19, (2S,3S)-2-amino-1,3-nonadecanediol]
Result: 1.000

Task: Name the recorded Fa of the compound listed here: CCCCCCCCC[C@H](O)[C@@H](N)CO [C12]
Result: 0.999
